Where do the numbers come from? From ChEMBL document CHEMBL1153748.

Target: Peroxisome proliferator-activated receptor delta (Homo sapiens) (UniProt Q03181)
Assay: Agonist activity at human PPARdelta by FRET assay
1 (yes) if EC50 is below 30 nM. 0 (no) if not; exact matches included in 0 (no).

Item `CCCc1ccc(-c2sc(COc3ccc(OCC(=O)O)c(C)c3)nc2-c2ccc(OC(C)C)cc2)cc1` : EC50 beneath 30 nM, strictly?
1 (yes)

Item `Cc1cc(OCc2nc(-c3ccc(OC(C)C)cc3)c(-c3ccc(C(F)(F)F)cc3)s2)ccc1OCC(=O)O` : EC50 beneath 30 nM, strictly?
1 (yes)

Item `COc1ccc(-c2nc(COc3ccc(OCC(=O)O)c(C)c3)sc2-c2ccc(OC(F)(F)F)cc2)cn1` : EC50 beneath 30 nM, strictly?
0 (no)

Item `Cc1cc(OCc2nc(-c3ccc(OC(C)C)cc3)c(-c3ccc(-c4ccccc4)cc3)s2)ccc1OCC(=O)O` : EC50 beneath 30 nM, strictly?
1 (yes)

Item `COc1ccc(-c2nc(COc3ccc(OCC(=O)O)c(C)c3)oc2-c2ccc(OC(F)(F)F)cc2)cn1` : EC50 beneath 30 nM, strictly?
0 (no)

Item `Cc1cc(OCc2nc(-c3ccc(OC4CCCC4)cc3)c(-c3ccc(OC(F)(F)F)cc3)s2)ccc1OCC(=O)O` : EC50 beneath 30 nM, strictly?
0 (no)

Item `Cc1cc(OCc2nc(-c3ccc(OC(C)C)cc3)c(-c3cccc(OC(F)(F)F)c3)s2)ccc1OCC(=O)O` : EC50 beneath 30 nM, strictly?
0 (no)

Item `Cc1cc(OCc2nc(-c3ccc(OC(C)C)nc3)c(-c3ccc(OC(F)(F)F)cc3)s2)ccc1OCC(=O)O` : EC50 beneath 30 nM, strictly?
1 (yes)

----------
Biological target: Peroxisome proliferator-activated receptor delta (Homo sapiens)
Sequence (Q03181 whole entry): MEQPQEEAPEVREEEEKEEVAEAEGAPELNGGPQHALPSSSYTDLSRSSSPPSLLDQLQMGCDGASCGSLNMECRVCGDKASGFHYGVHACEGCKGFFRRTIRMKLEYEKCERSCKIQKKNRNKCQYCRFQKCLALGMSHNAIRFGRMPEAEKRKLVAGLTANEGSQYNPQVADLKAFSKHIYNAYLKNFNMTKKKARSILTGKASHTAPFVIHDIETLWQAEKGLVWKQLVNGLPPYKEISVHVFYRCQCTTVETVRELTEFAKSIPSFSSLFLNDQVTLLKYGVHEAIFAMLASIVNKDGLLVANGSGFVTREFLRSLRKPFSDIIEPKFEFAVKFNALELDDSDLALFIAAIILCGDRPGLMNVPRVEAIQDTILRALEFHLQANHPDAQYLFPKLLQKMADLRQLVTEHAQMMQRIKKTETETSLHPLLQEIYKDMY
assay metric: log10 EC50 (log10 of the value in nM)
In plain terms, each number is the log10 of measured EC50 in nM.

Reported log10 EC50 of `Cc1cc(OCc2nc(-c3cnc(N4CCOCC4)nc3)c(-c3ccc(OC(F)(F)F)cc3)o2)ccc1OCC(=O)O` : 0.00

Reported log10 EC50 of `Cc1cc(OCc2nc(-c3ccc(OC(C)C)nc3)c(-c3ccc(OC(F)(F)F)cc3)s2)ccc1OCC(=O)O` : 0.90

Reported log10 EC50 of `Cc1cc(OCc2nc(-c3ccc(C(=O)N(C)C(C)C)cc3)c(-c3ccc(OC(F)(F)F)cc3)o2)ccc1OCC(=O)O` : 0.00

Reported log10 EC50 of `Cc1cc(OCc2nc(-c3ccc(C(F)(F)F)cc3)c(-c3ccc(OC(F)(F)F)cc3)s2)ccc1OCC(=O)O` : 2.52

Reported log10 EC50 of `COc1ccc(-c2nc(COc3ccc(OCC(=O)O)c(C)c3)sc2-c2ccc(OC)cc2)cc1` : 2.00

Reported log10 EC50 of `Cc1cc(OCc2nc(-c3ccc(C(=O)N(C)C)cc3)c(-c3ccc(OC(F)(F)F)cc3)s2)ccc1OCC(=O)O` : 1.36

Reported log10 EC50 of `Cc1cc(OCc2nc(-c3cccnc3)c(-c3ccc(OC(F)(F)F)cc3)o2)ccc1OCC(=O)O` : 0.85

Reported log10 EC50 of `COc1ccc(-c2nc(COc3ccc(OCC(=O)O)cc3)sc2-c2ccc(C(F)(F)F)cc2)cc1` : 2.97
